# screen value values compiled below
B1: S. cerevisiae Abp1 (full length; SH3 domain 535-592 mutated) / Hua2 (parent)
chain 1: MALEPIDYTTHSREIDAEYLKIVRGSDPDTTWLIISPNAKKEYEPESTGSSFHDFLQLFDETKVQYGLARVSPPGSDVEKIIIIGWCPDSAPLKTRASFAANFAAVANNLFKGYHVQVTARDEDDLDENELLMKISNAAGARYSIQTSSKQQGKASTPPVKKSFTPSKSPAPVSKKEPVKTPSPAPAAKISSRVNDNNDDDDWNEPELKERDFDQAPLKPNQSSYKPIGKIDLQKVIAEEKAKEDPRLVQKPTAAGSKIDPSSDIANLKNESKLKRDSEFNSFLGTTKPPSMTESSLKNDDDKVIKGFRNEKSPAQLWAERKAKQNSGNAETKAEAPKPEVPEDEPEGEPDVKDLKSKFEGLAASEKEEEEMENKFAPPPKKSEPTIISPKPFSKPQEPVKAEEAEQPKTDYKKIGNPLPGMHIEADNEEEPEENDDDWDDDEDEAAQPPLPSRNVASGAPVQKEEPEQEEIAPSLPSRNSIPAPKQEEAPEQAPEEEIEEEAEEAAPQLPSRSSAAPPPPPRRATPEKKPKENPWATAEYDYDAAEDNELTFVENDKIINIEFVDDDWWLGELEKDGSKGLFPSNYVSLGN
chain 2: MQQTKFGKMYLDHDSVVEYSEDEIVEADRITLGYKKRLSMIENQMRHLLEDFSLDVQQIEPILADLQKYYDAFLQLLQKRNKSLQCKRSTHQPVPSPMNSQTSTNAKVNLSGKLMKFQLNSVQKFDEENILRILQNKIEFEHYFQIDKGKKQKVLLLAVYQCLNGPTRLHKVLNIEGIIHNNSIRTILGKQVSSSKWTVFLYDVKLVLLAHRQDVPNLETSKMIVRYGDLFPCALYFKDHTAY

Variants of: B1
assay_text: DHFR protein-fragment complementation in yeast (Abp1-DHFR F[1,2] x partner-DHFR F[3]), deep mutational scanning, second methotrexate selection vs reference
condition_summary: with Hua2; S. cerevisiae, DHFR-PCA selection in liquid with methotrexate at 30 C, two 72 h selections (the score uses the second); reference = the pre-selection culture; not an affinity; value at the no-binding floor (a bound); scale: DMS score: mean over two replicates of log2(f_test/f_ref + 0.5)/ln 2, minus the synonymous-codon median

> print(dat)
   mutation.notation  measured.result
1      chain 1 L574W            -3.03
2      chain 1 A539N          < -3.06
3      chain 1 A537Y          < -3.06
4      chain 1 W570D          < -3.06

The measured screen value associated with chain 1 F583W reads < -3.06

The measured screen value associated with chain 1 L551S reads < -3.06

The measured screen value associated with chain 1 L551D reads < -3.06

The measured screen value associated with chain 1 P584F reads -3

The measured screen value associated with chain 1 L582D reads -2.99
